Values compiled from patent US10660877B2.

Molecular target: human TLR7 (Homo sapiens (Human))
Sequence (Q9NYK1 27-1049): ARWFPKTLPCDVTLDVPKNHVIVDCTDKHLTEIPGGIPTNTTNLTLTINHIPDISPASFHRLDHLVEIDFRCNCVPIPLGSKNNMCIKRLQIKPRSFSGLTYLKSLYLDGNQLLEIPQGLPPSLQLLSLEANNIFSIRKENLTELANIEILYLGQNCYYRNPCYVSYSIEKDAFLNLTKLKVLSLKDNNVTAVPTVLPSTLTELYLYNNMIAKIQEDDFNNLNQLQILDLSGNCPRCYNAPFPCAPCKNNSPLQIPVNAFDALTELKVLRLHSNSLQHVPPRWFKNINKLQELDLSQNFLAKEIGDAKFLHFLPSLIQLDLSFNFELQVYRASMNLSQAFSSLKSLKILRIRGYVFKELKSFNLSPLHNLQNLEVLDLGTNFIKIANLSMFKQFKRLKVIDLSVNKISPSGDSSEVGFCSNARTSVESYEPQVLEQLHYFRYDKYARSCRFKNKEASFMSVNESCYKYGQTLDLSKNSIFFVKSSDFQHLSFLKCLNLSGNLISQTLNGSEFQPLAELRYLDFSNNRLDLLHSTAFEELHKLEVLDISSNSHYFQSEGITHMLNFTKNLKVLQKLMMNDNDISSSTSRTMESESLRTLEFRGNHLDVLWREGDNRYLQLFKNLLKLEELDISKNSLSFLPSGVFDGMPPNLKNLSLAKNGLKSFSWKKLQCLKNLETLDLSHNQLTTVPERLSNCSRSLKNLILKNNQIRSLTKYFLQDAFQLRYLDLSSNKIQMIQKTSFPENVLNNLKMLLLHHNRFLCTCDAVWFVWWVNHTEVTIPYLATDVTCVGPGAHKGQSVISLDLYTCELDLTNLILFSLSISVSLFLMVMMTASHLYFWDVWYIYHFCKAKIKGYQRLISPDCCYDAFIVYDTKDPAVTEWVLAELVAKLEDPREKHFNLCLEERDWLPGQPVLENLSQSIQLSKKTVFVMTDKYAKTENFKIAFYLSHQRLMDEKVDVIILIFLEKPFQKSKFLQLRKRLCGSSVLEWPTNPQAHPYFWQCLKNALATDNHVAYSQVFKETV
Test: TLR7 inhibition reporter assay (HEK-Blue cells, SEAP reporter, gardiquimod stimulation)
Assay type: cell-based
Conditions: HEK-Blue cells overexpressing human TLR7, gardiquimod 7.5 μM
The label is YES for IC50 below 10 nM and NO for IC50 equal to or exceeding 10 nM.

Reference set (8 entries):
>>> category_label("Cc1cc(-c2[nH]c3ccc(C4CCN(C(=O)C5CC5(F)F)CC4)cc3c2C(C)C)cc(C)n1 (stereo not shown)")
"YES"
>>> category_label("Cc1cc(-c2[nH]c3ccc(C4CCN(CCO)CC4)cc3c2C(C)C)c(F)cn1")
"YES"
>>> category_label("CNC(=O)CN1CCC(c2ccc3[nH]c(-c4cc(C)nc(F)c4)c(C(C)C)c3c2)CC1")
"NO"
>>> category_label("CCc1c(-c2ccnc(C)c2)[nH]c2ccc(C3CCN(CC4CCN(C(C)C)CC4)CC3)cc12")
"NO"
>>> category_label("Cc1nccc(-c2[nH]c3ccc(C4CCN(Cc5ncn(C)n5)CC4)cc3c2C(C)C)c1F")
"NO"
>>> category_label("Cc1nccc(-c2[nH]c3ccc(C4CCN(C(=O)C5CC(=O)N(C)C5)CC4)cc3c2C(C)C)c1F (stereo not shown)")
"NO"
>>> category_label("Cc1cc(-c2[nH]c3ccc(C4CCN(C(=O)[C@@H]5C[C@H](F)CN5)CC4)cc3c2C(C)C)cc(C)n1")
"YES"
>>> category_label("COC(=O)N1CCC(c2ccc3[nH]c(-c4ccnc(C)c4)c(C(C)C)c3c2)CC1")
"NO"

Would you kindly verify if IC50 of `COc1cc(-c2[nH]c3ccc(C4CCN(C5CCOCC5)CC4)cc3c2C(C)C)ccn1` is strictly less than 10 nM? NO

Here's an entry: `Cc1cc(-c2[nH]c3ccc(C4CCN(C5COC5)CC4)cc3c2C(C)C)cc(C)n1` . Is its IC50 below 10 nM? YES

Consider the molecule `CCc1c(-c2ccnc(C)c2)[nH]c2ccc(C3CCN(C[C@@H]4CCNC4)CC3)cc12` . Is its IC50 strictly less than 10 nM? NO

Lab note: IC50 threshold 10 nM. Does this molecule come in strictly under it? `Cc1cc(-c2[nH]c3ccc(C4CCNCC4)cc3c2CC2CC2)ccn1` NO

IC50 strictly < 10 nM for this molecule? `Cc1cc(-c2[nH]c3ccc(C4CCN(C(=O)C(C)(C)O)CC4)cc3c2C(C)C)cc(C)n1` YES

Item `CCc1c(-c2ccnc(Cl)c2)[nH]c2ccc(C3CCN(C4CCN(CC(C)C)CC4)CC3)cc12` : IC50 beneath 10 nM, strictly? NO

IC50 strictly < 10 nM for this molecule? `Cc1nccc(-c2[nH]c3ccc(C4CCNCC4)cc3c2C(C)C)c1F` YES

###

Molecular target: human TLR8 (Homo sapiens (Human))
Sequence (Q9NR97 27-1041): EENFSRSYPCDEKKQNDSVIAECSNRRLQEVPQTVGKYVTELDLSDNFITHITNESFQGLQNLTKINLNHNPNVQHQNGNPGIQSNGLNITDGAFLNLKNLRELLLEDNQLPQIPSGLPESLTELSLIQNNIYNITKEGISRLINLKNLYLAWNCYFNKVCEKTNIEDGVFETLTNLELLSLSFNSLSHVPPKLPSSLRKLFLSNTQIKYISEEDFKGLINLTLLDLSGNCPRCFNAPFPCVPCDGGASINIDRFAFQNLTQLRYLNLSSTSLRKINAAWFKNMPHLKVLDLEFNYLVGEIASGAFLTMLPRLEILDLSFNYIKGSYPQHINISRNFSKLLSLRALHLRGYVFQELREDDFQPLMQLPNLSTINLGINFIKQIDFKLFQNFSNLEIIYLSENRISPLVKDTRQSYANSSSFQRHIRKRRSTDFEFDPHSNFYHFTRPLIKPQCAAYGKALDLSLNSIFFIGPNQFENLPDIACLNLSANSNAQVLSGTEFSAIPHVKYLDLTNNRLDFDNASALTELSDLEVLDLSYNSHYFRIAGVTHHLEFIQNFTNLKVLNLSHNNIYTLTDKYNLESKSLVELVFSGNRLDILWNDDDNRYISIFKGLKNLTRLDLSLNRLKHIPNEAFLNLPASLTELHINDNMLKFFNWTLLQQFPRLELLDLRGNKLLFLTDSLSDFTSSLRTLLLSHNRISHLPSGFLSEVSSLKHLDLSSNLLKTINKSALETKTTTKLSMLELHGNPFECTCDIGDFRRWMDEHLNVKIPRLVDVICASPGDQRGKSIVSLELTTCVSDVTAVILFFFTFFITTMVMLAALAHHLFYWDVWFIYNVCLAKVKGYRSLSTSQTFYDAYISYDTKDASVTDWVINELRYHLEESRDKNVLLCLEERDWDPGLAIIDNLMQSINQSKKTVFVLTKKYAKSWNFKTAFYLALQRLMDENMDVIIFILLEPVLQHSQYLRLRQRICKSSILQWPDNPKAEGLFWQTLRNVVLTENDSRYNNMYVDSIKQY
Test: TLR8 inhibition reporter assay (HEK-Blue cells, SEAP reporter, R848 stimulation);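 also: compounds tested from 0.05 nM to 50 µM, 22 h at 37 °C, SEAP measured with HEK-Blue Detection, inhibition relative to agonist plus DMSO versus a known inhibitor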
Details: read-out: TLR8 IC50, HEK-Blue cells overexpressing human TLR8, R848 15.9 μM
The entries below are paired with their reported IC50.
Write the number in nM without appending the unit.

>>> numeric_readout("CC(=O)N(C)CCC(=O)N1CCC(c2ccc3[nH]c(-c4cc(C)nc(C)c4)c(C(C)C)c3c2)CC1")
90.3

Entry under test: `Cc1cc(-c2[nH]c3ccc(C4CCN(Cc5ccnn5C)CC4)cc3c2C(C)C)cc(C)n1` . Its IC50 was 7.5

# IC50 (compound: `Cc1cc(-c2[nH]c3ccc(C4CCN(C(=O)CCO)CC4)cc3c2C(C)C)cc(C)n1` ) is 116

The measured IC50 associated with `Cc1cc(-c2[nH]c3ccc(C4CCN(CC(C)(C)C(=O)O)CC4)cc3c2C(C)C)cc(C)n1` reads 68.5
